target-entity: recombinant trBcl-2L2 (Trichoplax adhaerens Bcl-2-like protein 2), lacking the 7 N-terminal and 34 C-terminal residues (Trichoplax adhaerens)
experiment-summary: ITC
endpoint-label: Kd (nM)

IEPTSPTIQVARTIRQIGDELDSDPHLN [trBax BH3 peptide]; 728
PSSPTSEIGRHLAQLGDSYSVRFQNE [trBak BH3 peptide]; 563
